pIC50: −log10 of the molar value.
Observed pIC50, system SRC (Homo sapiens, UniProt P12931).

GIVEN_SMILES	MEASURED_TARGET	pIC50
N#CN1C[C@H](n2nc(-c3ccc(Oc4ccc(F)cc4F)cc3)c(C(N)=O)c2N)CCC12CC2	SRC (Homo sapiens, UniProt P12931)	< 6.00
N#CN1C[C@H](n2nc(-c3ccc(Oc4ccc(Cl)cn4)cc3)c(C(N)=O)c2N)CCC12CC2	SRC (Homo sapiens, UniProt P12931)	< 6.00

---

target: LYN (Homo sapiens)
Sequence (P07948 whole entry, species assumed): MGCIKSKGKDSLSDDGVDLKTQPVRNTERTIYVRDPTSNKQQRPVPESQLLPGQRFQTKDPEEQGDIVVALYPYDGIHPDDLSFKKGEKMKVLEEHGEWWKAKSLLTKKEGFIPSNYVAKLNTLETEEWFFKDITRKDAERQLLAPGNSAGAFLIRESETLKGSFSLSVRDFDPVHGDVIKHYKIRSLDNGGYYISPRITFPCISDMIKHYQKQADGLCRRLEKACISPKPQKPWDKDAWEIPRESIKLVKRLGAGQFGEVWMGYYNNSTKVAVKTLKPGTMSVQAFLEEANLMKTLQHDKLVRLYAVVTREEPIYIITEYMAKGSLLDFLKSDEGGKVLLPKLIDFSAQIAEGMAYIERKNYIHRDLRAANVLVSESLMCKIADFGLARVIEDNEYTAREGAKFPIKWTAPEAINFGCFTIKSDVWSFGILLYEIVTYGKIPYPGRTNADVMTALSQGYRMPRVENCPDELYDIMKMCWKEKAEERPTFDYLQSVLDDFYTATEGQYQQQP
pIC50: −log10 of the molar value.
# maps each entry to its pIC50

GIVEN_SMILES	MEASURED_TARGET	pIC50
N#CN1C[C@H](n2nc(-c3ccc(Oc4ccc(Cl)cn4)cc3)c(C(N)=O)c2N)CCC12CC2	LYN (Homo sapiens)	< 6.00
CC#CC(=O)N1C[C@H](n2nc(-c3ccc(Oc4ccc(Cl)cn4)cc3)c(C(N)=O)c2N)CCC12CC2	LYN (Homo sapiens)	< 6.00
